# measurement.target: Major prion protein (Mus musculus) (UniProt P04925)
# Sequence (P04925 whole entry): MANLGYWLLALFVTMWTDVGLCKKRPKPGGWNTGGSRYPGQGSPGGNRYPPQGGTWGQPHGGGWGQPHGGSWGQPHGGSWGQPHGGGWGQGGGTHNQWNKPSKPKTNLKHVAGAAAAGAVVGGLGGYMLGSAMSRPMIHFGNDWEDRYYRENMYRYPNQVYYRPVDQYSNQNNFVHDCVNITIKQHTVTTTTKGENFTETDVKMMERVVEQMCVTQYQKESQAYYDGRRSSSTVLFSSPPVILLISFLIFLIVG
# measurement.description: Inhibition of PrP-res formation in SMB (Scrapie mouse brain) cells at 10 uM; call rule not given here
# Assay type: functional
Labels: active, inactive

chemical.string	qualitative.label
C(=N\c1ccccc1)/c1ccc(-c2ccc(/C=N/c3ccccc3)cc2)cc1	inactive
COC(=O)c1ccc(OC)c(/N=C/c2ccc(/C=N/c3cc(C(=O)OC)ccc3OC)cc2)c1	inactive
O=C(O)c1cc(/C=C/c2ccc(/C=C/c3ccc(O)c(C(=O)O)c3)cc2)ccc1O	inactive
COC(=O)c1cc(NC(=O)c2ccc(C(=O)Nc3cc(C(=O)OC)cc(C(=O)OC)c3)cc2)cc(C(=O)OC)c1	active
O=C(O)c1cc(/N=C/c2ccc(/C=N/c3ccc(O)c(C(=O)O)c3)cc2)ccc1O	inactive
